// values below are reported Fold change (relative to G6.31)
Molecular target: T1, human VEGF (hVEGF) (human, UniProt P15692 181-395)
T1 construct: also called VEGF-A
T1 sequence: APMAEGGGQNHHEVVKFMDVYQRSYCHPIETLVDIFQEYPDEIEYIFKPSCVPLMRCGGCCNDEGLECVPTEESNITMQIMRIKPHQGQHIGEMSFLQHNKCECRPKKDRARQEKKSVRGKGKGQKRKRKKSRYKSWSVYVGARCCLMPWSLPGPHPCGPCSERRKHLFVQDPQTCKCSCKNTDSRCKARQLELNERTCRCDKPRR
Experiment: SPR single-cycle;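 further: fab variants injected over hVEGF immobilized on a CM5 chip (Biacore T200), threefold dilution series from 0.02 to 50 nM, kinetics fitted with a 1:1 Langmuir model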
valueType: Fold change (relative to G6.31) (fold)

* G6.31 HC-T77K (Fab, name in Kabat numbering, V domains shown, Fab) VH: EVQLVESGGGLVQPGGSLRLSCAASGFTISDYWIHWVRQAPGKGLEWVAGITPAGGYTYYADSVKGRFTISADTSKNKAYLQMNSLRAEDTAVYYCARFVFFLPYAMDYWGQGTLVTVSS VL: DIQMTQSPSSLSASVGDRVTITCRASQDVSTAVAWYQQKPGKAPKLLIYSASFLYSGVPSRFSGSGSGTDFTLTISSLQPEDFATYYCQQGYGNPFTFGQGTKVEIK | 7.7
* G6.31 LC-G93E (Fab, V domains shown, Fab) VH: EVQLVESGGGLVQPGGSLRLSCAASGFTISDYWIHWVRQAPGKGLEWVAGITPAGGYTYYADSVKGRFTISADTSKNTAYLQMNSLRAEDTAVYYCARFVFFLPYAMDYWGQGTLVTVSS VL: DIQMTQSPSSLSASVGDRVTITCRASQDVSTAVAWYQQKPGKAPKLLIYSASFLYSGVPSRFSGSGSGTDFTLTISSLQPEDFATYYCQQGYENPFTFGQGTKVEIK | 0.3
* G6.31 LC-Q27E (Fab, V domains shown, Fab) VH: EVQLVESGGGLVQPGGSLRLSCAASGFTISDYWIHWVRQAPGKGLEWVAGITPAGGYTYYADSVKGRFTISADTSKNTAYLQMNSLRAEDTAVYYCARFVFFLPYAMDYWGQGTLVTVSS VL: DIQMTQSPSSLSASVGDRVTITCRASEDVSTAVAWYQQKPGKAPKLLIYSASFLYSGVPSRFSGSGSGTDFTLTISSLQPEDFATYYCQQGYGNPFTFGQGTKVEIK | 0.9

Origin of measurements: patent US20210115124A1
